# System: NOMO1
# assay_info: cell viability relative to DMSO control; higher = less cytotoxic
# run_conditions: RPMI 5 mM glucose + 10% dialyzed FBS; 48 h; 1.71 µM
I'd be grateful if you could share measured cell viability for these entries.
The figure you give is taken to be in %; do not add the unit.

Form field, cell viability with NOMO1, item "Cc1coc2c1C(=O)C(=O)c1c-2ccc2c1CCCC2(C)C" : 87.5

Form field, cell viability with NOMO1, item "COc1c(C)c2c(c(O)c1C/C=C(\C)CCC(=O)O)C(=O)OC2" : 89.5

Form field, cell viability with NOMO1, item "O=C(O)C(=O)c1cn(Cc2ccccc2)c2ccc(-c3ccc(OC(F)(F)F)cc3)cc12" : 85.2

Form field, cell viability with NOMO1, item "COc1cc[nH]c2ncc(C(=O)C(=O)N3CCN(C(=O)c4ccccc4)C[C@H]3C)c1-2" : 105

Form field, cell viability with NOMO1, item "Cc1cc2c(C(N)=O)cccc2n1-c1nc2c(c(NCc3ccccc3)n1)COCC2" : 20.6

Form field, cell viability with NOMO1, item "Cc1cccc(Nc2ccncc2[S+](=O)([O-])NC(=O)NC(C)C)c1" : 89.3

Form field, cell viability with NOMO1, item "Nc1ccc([S+](=O)([O-])Nc2ccnn2-c2ccccc2)cc1" : 93.8

Form field, cell viability with NOMO1, item COC(=O)C\1=C(C)\N\C(=C(/C1C2=CC=CC3=NON=C23)C(=O)OC(C)C)C (centres undefined) : 102

Form field, cell viability with NOMO1, item "CNCC[C@H](Oc1cccc2ccccc12)c1cccs1" : 114
